- testedOn: DRB1*0901 (Homo sapiens, UniProt P01903+P01911, A100R/A103E/D57H/D86V/F55Y/F60I/F76Y/I96F/K127E/L162R/M171V/P40D/Q125H/Q99R/R33Q/R42F/S133A/S66N/T210M/V115G/W38K/Y107V/Y59G/Y89S)
- protocolDetails: biochemical
- Format: binding
- conditionDescription: read-out: IC50 nM to purified HLA DRB1*0901
Can you tell me IC50 for the items I'm about to list?
Please respond with the number in nM and leave the unit unwritten.

Please give the documented IC50 of CC[C@H](C)[C@H](NC(=O)[C@H](CC(C)C)NC(=O)[C@H](C)NC(=O)[C@H](CO)NC(=O)[C@H](CCCNC(=N)N)NC(=O)[C@H](C)NC(=O)[C@H](CC(C)C)NC(=O)[C@H](Cc1ccccc1)NC(=O)[C@@H](NC(=O)[C@@H](N)CC(C)C)[C@@H](C)CC)C(=O)N[C@@H](CC(C)C)C(=O)N[C@@H](CCCNC(=N)N)C(=O)NCC(=O)N[C@@H](CO)C(=O)N[C@H](C(=O)O)C(C)C
19

Give IC50 for CC[C@H](C)[C@H](NC(=O)[C@H](CCC(N)=O)NC(=O)[C@H](CCC(=O)O)NC(=O)[C@@H](N)Cc1ccccc1)C(=O)N[C@H](C(=O)N[C@@H](Cc1ccccc1)C(=O)N[C@@H](CCSC)C(=O)N[C@@H](CCC(N)=O)C(=O)N[C@@H](C)C(=O)N[C@@H](CC(C)C)C(=O)N[C@@H](CCC(N)=O)C(=O)N[C@@H](CC(C)C)C(=O)N[C@@H](CC(C)C)C(=O)N[C@@H](CC(C)C)C(=O)N[C@@H](CCC(=O)O)C(=O)O)[C@@H](C)O
47

Return IC50 for the following compound: CC[C@H](C)[C@H](NC(=O)[C@H](CCC(N)=O)NC(=O)[C@H](CC(C)C)NC(=O)[C@H](CCSC)NC(=O)[C@H](CC(C)C)NC(=O)[C@@H](N)CO)C(=O)NCC(=O)N[C@@H](CC(N)=O)C(=O)N[C@@H](CCSC)C(=O)N[C@H](C(=O)N[C@@H](CO)C(=O)N[C@H](C(=O)N[C@@H](Cc1c[nH]c2ccccc12)C(=O)N[C@H](C(=O)N[C@@H](CO)C(=O)N[C@@H](Cc1c[nH]cn1)C(=O)N[C@@H](CO)C(=O)O)C(C)C)[C@@H](C)CC)[C@@H](C)CC
86

* * *

- testedOn: DRB1*0701 (Homo sapiens, UniProt P01903+P01911, A100R/A102G/A103Q/D57E/D86V/E43K/F76Y/K127E/L162R/M171V/P40G/Q125H/Q99D/R33Q/R42Y/R54Q/S133A/S66F/T210M/V115G/Y107V/Y59L/Y89S)
- protocolDetails: biochemical
- Assay type: binding
observedProperty: IC50 (nM)
Please reply with the bare figure in nM and do not write the unit itself.

Return the recorded IC50 value; entry: CC[C@H](C)[C@H](NC(=O)[C@H](CCC(N)=O)NC(=O)[C@H](CC(C)C)NC(=O)[C@H](CCSC)NC(=O)[C@H](CC(C)C)NC(=O)[C@@H](N)CO)C(=O)NCC(=O)N[C@@H](CC(N)=O)C(=O)N[C@@H](CCSC)C(=O)N[C@H](C(=O)N[C@@H](CO)C(=O)N[C@H](C(=O)N[C@@H](Cc1c[nH]c2ccccc12)C(=O)N[C@H](C(=O)N[C@@H](CO)C(=O)N[C@@H](Cc1c[nH]cn1)C(=O)N[C@@H](CO)C(=O)O)C(C)C)[C@@H](C)CC)[C@@H](C)CC [Flu.NA.21]
13

* * *

- testedOn: DRB1*0405 (Homo sapiens, UniProt P01903+P01911, A100R/A169T/D86S/F76Y/I96L/K127E/L162R/M171V/N62H/P40V/Q125Y/R42H/S133A/S149N/S66Y/V115G/V209L/W38E)
- protocolDetails: biochemical
- Assay type: binding
- conditionDescription: read-out: IC50 nM to purified HLA DRB1*0405
observedProperty: IC50 (nM)
Number in nM, nothing else.

Report IC50 for CC[C@H](C)[C@H](NC(=O)[C@H](CO)NC(=O)[C@@H](NC(=O)[C@@H](NC(=O)[C@@H](NC(=O)[C@@H](N)CCCNC(=N)N)C(C)C)C(C)C)C(C)C)C(=O)N[C@@H](CC(=O)O)C(=O)N[C@@H](CCCNC(=N)N)C(=O)N[C@@H](Cc1ccccc1)C(=O)N[C@@H](CC(C)C)C(=O)N[C@@H](CCCNC(=N)N)C(=O)N[C@H](C(=O)N[C@@H](CCCNC(=N)N)C(=O)N[C@@H](CC(=O)O)C(=O)N[C@@H](CCC(N)=O)C(=O)O)C(C)C
2050

* * *

- testedOn: DRB1*0401 (Homo sapiens, UniProt P01903+P01911, A100K/A169T/F76Y/I96L/K127E/L162R/M171V/N62H/P40V/Q125Y/R42H/S133A/S149N/S66Y/V115G/V209L/W38E)
- Construct: made in house; host or cells: EBV-transformed homozygous human B cell lines, transfected fibroblasts or single-allele 721.221 transfectants
- protocolDetails: biochemical
- Assay type: binding
- conditionDescription: read-out: IC50 nM to purified HLA DRB1*0401
Kindly state IC50 for each of the entries shown.
Your answer is read as nM, so omit the unit and give the number.

Indicate the recorded IC50 value for this compound: CC(C)C[C@H](NC(=O)[C@H](C)NC(=O)CNC(=O)[C@H](CCC(N)=O)NC(=O)[C@@H](N)[C@@H](C)O)C(=O)N[C@@H](CC(C)C)C(=O)N[C@@H](CC(N)=O)C(=O)N[C@@H](CC(=O)O)C(=O)N[C@@H](CCCCN)C(=O)N[C@@H](Cc1c[nH]cn1)C(=O)N[C@@H](CO)C(=O)N[C@@H](CC(N)=O)C(=O)NCC(=O)N[C@H](C(=O)N[C@H](C(=O)N[C@@H](CCCCN)C(=O)N[C@@H](CC(=O)O)C(=O)O)C(C)C)[C@@H](C)O
19000

Recall and state the measured IC50 for CC[C@H](C)[C@H](NC(=O)[C@@H](NC(=O)[C@@H](N)CC(=O)O)C(C)C)C(=O)N[C@@H](CCSC)C(=O)N[C@@H](CCC(=O)O)C(=O)N[C@H](C(=O)N[C@H](C(=O)N[C@@H](Cc1ccccc1)C(=O)N1CCC[C@H]1C(=O)N[C@@H](CC(N)=O)C(=O)N[C@@H](CCC(=O)O)C(=O)N[C@H](C(=O)NCC(=O)N[C@@H](C)C(=O)N[C@@H](CCCNC(=N)N)C(=O)O)C(C)C)C(C)C)C(C)C .
1100

Hello, please tell me recorded IC50 for this one: CC[C@H](C)[C@H](NC(=O)[C@H](CC(N)=O)NC(=O)[C@H](Cc1ccc(O)cc1)NC(=O)[C@H](CC(C)C)NC(=O)[C@H](CC(N)=O)NC(=O)[C@@H]1CCCN1C(=O)CNC(=O)CNC(=O)[C@H](CC(=O)O)NC(=O)[C@H](CO)NC(=O)[C@@H](NC(=O)[C@H](CC(C)C)NC(=O)[C@H](CC(C)C)NC(=O)CNC(=O)[C@H](C)N)C(C)C)C(=O)O
3000

* * *

- testedOn: DRB1*0405 (Homo sapiens, UniProt P01903+P01911, A100R/A169T/D86S/F76Y/I96L/K127E/L162R/M171V/N62H/P40V/Q125Y/R42H/S133A/S149N/S66Y/V115G/V209L/W38E)
- protocolDetails: biochemical
- Type: binding
- conditionDescription: read-out: IC50 nM to purified HLA DRB1*0405
observedProperty: IC50 (nM)
// return numeric value only (unit: nM, not printed)

Give IC50 for the following compound: CC[C@H](C)[C@H](NC(=O)[C@H](CCCCN)NC(=O)[C@H](CC(N)=O)NC(=O)[C@H](C)NC(=O)[C@H](CCCCN)NC(=O)[C@H](CCC(=O)O)NC(=O)[C@H](CC(C)C)NC(=O)[C@H](Cc1ccc(O)cc1)NC(=O)[C@H](Cc1ccc(O)cc1)NC(=O)[C@@H](NC(=O)[C@H](Cc1c[nH]cn1)NC(=O)[C@@H](NC(=O)[C@H](CCC(=O)O)NC(=O)[C@H](CCCNC(=N)N)NC(=O)[C@@H](N)CCCNC(=N)N)C(C)C)[C@@H](C)CC)C(=O)O
1490

Provide one value: measured IC50 of CC(C)[C@H](NC(=O)[C@H](CCC(=O)O)NC(=O)[C@H](C)NC(=O)[C@@H](NC(=O)[C@H](Cc1ccccc1)NC(=O)[C@H](Cc1ccc(O)cc1)NC(=O)[C@H](CC(N)=O)NC(=O)[C@@H](N)CCCNC(=N)N)[C@@H](C)O)C(=O)N[C@@H](CO)C(=O)N[C@@H](Cc1c[nH]cn1)C(=O)N[C@@H](CS)C(=O)N[C@@H](CCCNC(=N)N)C(=O)N[C@@H](C)C(=O)N[C@H](C(=O)N[C@@H](CCC(=O)O)C(=O)O)[C@@H](C)O
5720

Respond only with IC50 recorded for CC[C@H](C)[C@H](NC(=O)CNC(=O)[C@H](CCCNC(=N)N)NC(=O)[C@@H](N)CCC(N)=O)C(=O)N[C@@H](CC(C)C)C(=O)N[C@@H](CCC(=O)O)C(=O)N[C@@H](CC(=O)O)C(=O)N[C@@H](CCC(=O)O)C(=O)N[C@@H](CCC(N)=O)C(=O)N[C@@H](CCSC)C(=O)N[C@@H](Cc1ccc(O)cc1)C(=O)N[C@@H](CCC(N)=O)C(=O)N[C@@H](CCCCN)C(=O)N[C@@H](CS)C(=O)N[C@@H](CS)C(=O)O
700
